# target-or-system: SP1 zinc finger domain (UniProt P08047 SEQ:1-94)
# Sequence (P08047 620-713): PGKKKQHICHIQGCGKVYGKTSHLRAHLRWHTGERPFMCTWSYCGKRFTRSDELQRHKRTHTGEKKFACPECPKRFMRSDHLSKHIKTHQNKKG
# assay-text: EMSA; 170 mM KCl, 1.7 mM MgCl2, Zn

binder: SP1 target (dsDNA) DNA 1: GGGGCGGGGG DNA 2: CCCCCGCCCC
readout-units: nM
Kd: 0.25
